These entries and their values trace back to PubChem BioAssay.

Target: NADPH oxidase 4 (Homo sapiens)
Assay: NOX4-dependent H2O2 signal modulators, primary screen, NOX inhibitor project, cell-based, HEK293-NOX4, tetracycline-induced, Amplex Red fluorescence (AID 1160)
Settings: 45 min, higher = more signal, called active from +8 up or from −8 down
Measured Metric: z-score
Simply state the number, no unit and no words.

Query: State the recorded z-score for this entry: O=C1N(Cc2ccccc2)c2ccccc2C[C@@]12N=C(c1ccc(OCCCO)cc1)O[C@H]2c1ccccc1
Result: 0.112

Query: Please look up its z-score: CCOC(=O)C[C@H]1[C@H](OC(=O)c2ccc(-c3ccccc3)cc2)[C@@H](NC(=O)c2ccc(-c3ccccc3)cc2)c2cc(OCCCO)ccc2N1C(=O)c1ccccc1
Result: -1.29

Query: Give its z-score value. Item: CC(C)N1C(=O)[C@@]2(Cc3ccccc31)c1ccccc1C(=O)N(Cc1ccccc1C(F)(F)F)[C@H]2c1ccc(CO)cc1
Result: -1.18

###

Experiment: small-molecule microarray binders of probe aXIP, primary screen, biochemical, NeuroSMM set, 635/667 nm fluorescence (AID 1119);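 note: probe is the protein aXip251-270 applied at 1 µg/mL to compound-printed slides; binding of probe to printed compounds measured as 667 nm fluorescence plus signal to noise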
Conditions: higher = more signal, called active from +8 up or from −8 down
Give composite Z-score for every item shown.
Enter a number only.

Query: Any idea what its composite Z-score is? The molecule is C=CC[C@]1(C(=O)NCCN2CCOCC2)N=C(c2ccc(OCCCO)cc2)O[C@H]1c1ccccc1
Result: 0.0999

Query: Bench note: what composite Z-score did CC(C)(C)OC(=O)CC[C@@]1(C(N)=O)N=C(c2ccc(OCCCO)cc2)O[C@@H]1c1ccccc1CN=[N+]=[N-] show?
Result: -0.0657

Query: Endpoint output: composite Z-score of O=C1O[C@H](c2ccccc2)[C@H](c2ccccc2)N2[C@H]1[C@@H](C(=O)N1CCN(c3ncccn3)CC1)[C@]1(C(=O)Nc3ccc(C#CC4(O)CCCCCC4)cc31)[C@H]2c1ccc(O)cc1 . Value?
Result: -0.019

Query: Item under review: COCCOC(=O)N1C(=O)[C@@]2(c3cc(C#CC4(O)CCCCCC4)ccc31)[C@H](C(N)=O)[C@H]1C(=O)O[C@H](c3ccccc3)[C@H](c3ccccc3)N1[C@@H]2c1ccc(OCCO)cc1 . Reported composite Z-score?
Result: 0.133

Query: Name the reported composite Z-score value associated with the molecule CS(=O)(=O)CCOC(=O)C1=CC(CCCO)=CC(C2CC2)N(Cc2sc3ccccc3c2Cl)C=C1C(=O)OCCS(C)(=O)=O (configuration not stated)
Result: -0.0349

Query: Dear colleague, I am looking for the recorded composite Z-score of the following molecule: CCOC(=O)C[C@H]1[C@H](OC(=O)Cc2ccc3c(c2)OCO3)[C@@H](NC(=O)CC(C)C)c2cc(OCCCO)ccc2N1C(=O)c1ccc2ccccc2n1
Result: 0.0066

Query: For the molecule COc1cccc(C)c1NC(=O)O[C@H]1[C@H](OC(=O)Nc2ccccc2-c2ccccc2)[C@@H](OC(=O)Nc2ccccc2-c2ccccc2)[C@@H](OC)O[C@@H]1CO , what composite Z-score is on record?
Result: 0.694

Query: Suppose we examine the molecule C=CCOC(=O)[C@@H]1[C@H]2C(=O)O[C@H](c3ccccc3)[C@H](c3ccccc3)N2[C@H](c2ccc(OCCOC(=O)[C@@H]3C[C@@H]4C(=O)N[C@@H](CC(C)C)C(=O)N4[C@@H]3c3ccc(O)cc3)cc2)[C@@]12C(=O)Nc1ccc(I)cc12 ; what composite Z-score value has been reported?
Result: 0.207

Query: So what does the record say about composite Z-score for [N-]=[N+]=NCc1ccccc1[C@H]1OC(c2ccc(OCCCO)cc2)=N[C@@]1(Cc1ccccc1N=[N+]=[N-])C(N)=O ?
Result: 0.385

Query: Please give the measured composite Z-score for this molecule: C=CCNC(=O)[C@H]1[C@@H]2C(=O)O[C@@H](c3ccccc3)[C@@H](c3ccccc3)N2[C@@H](c2ccc(OCCO)cc2)[C@]12C(=O)N(C(=O)OCCOC)c1ccc(C#CCNC(N)=O)cc12
Result: -0.0518

Query: // lookup composite Z-score for COCCOC(=O)N1C(=O)[C@@]2(c3cc(C#CCNC(N)=O)ccc31)[C@H](c1ccc(O)cc1)N1[C@H](c3ccccc3)[C@H](c3ccccc3)OC(=O)[C@H]1[C@@H]2C(=O)N1CCc2cc(OC)c(OC)cc2C1
Result: 0.443

Query: Value lookup for composite Z-score; key = O=C1C2C=CC(C(O)c3ccccn3)N(Nc3ccc([N+](=O)[O-])cc3)C2C(=O)N1c1ccccc1 (configuration not stated)
Result: 0.0129

Query: Which composite Z-score is listed for COCCOC(=O)N1C(=O)[C@@]2(c3cc(C#CCNC(N)=O)ccc31)[C@H](c1ccccc1OCCO)N1[C@H](c3ccccc3)[C@H](c3ccccc3)OC(=O)[C@H]1[C@@H]2C(=O)N1CCCCCCC1 ?
Result: 0.627

Query: GET /values?readout=composite Z-score&item= CC(C)C[C@@H]1NC(=O)[C@@H]2C[C@H](C(=O)NCCCCCCNC(=O)CS)[C@H](c3ccc(O)cc3)N2C1=O
Result: 0.0101

Query: # input molecule: CCCCC(=C=CC[C@@H](O)c1ccc(OCCO)cc1)CCO ; wanted: its composite Z-score
Result: 0.742

Query: Which composite Z-score value belongs to O=C1c2ccccc2[C@@]2(Cc3ccccc3N(CC(F)(F)F)C2=O)[C@H](c2ccc(CO)cc2)N1Cc1ccccc1 ?
Result: -0.207

Query: Which measured composite Z-score value corresponds to CCCN1C(=O)[C@@]2(c3ccc([N+](=O)[O-])cc3)CC(=O)N(C3CCCCC3)[C@@H]2c2ccc(CO)cc21 ?
Result: 2.02

###

Assay: CREB reporter modulators under forskolin, primary screen, cell-based, PC12, CRE-LacZ reporter, forskolin-stimulated (AID 1146);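 note: PC12 cells with 6xCRE LacZ reporter stimulated by forskolin 10 µM; beta-galactosidase reporter signal reflecting CREB driven transcription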
Details: luminescence, 4.5 h, higher = more signal, called active from +8 up or from −8 down
For each entry below, report its z-score value.
API doc: respond with a numeric literal and nothing else, no unit.

Query: z-score for C=CCNC(=O)[C@H]1[C@@H]2C(=O)O[C@@H](c3ccccc3)[C@@H](c3ccccc3)N2[C@@H](c2ccc(OCCO)cc2)[C@]12C(=O)Nc1ccc(C#Cc3ccc(OC)cc3)cc12 ?
Result: 0.237

Query: Reported z-score, compound C=C1C(=O)C=C2CN(C(=O)c3ccccc3)[C@@](Cc3ccc(F)cc3)(C(=O)OC)[C@@H]12 : ____
Result: -2.15

Query: Consider the compound shown here: CC1C2C(CCCO)=CC(C3C(=O)N(C)C(=O)C23)N1Cc1cccc(OC(F)(F)F)c1 (stereo unspecified) What is its recorded z-score?
Result: -0.733

Query: May I ask what z-score has been recorded for CN1C(=O)C2C=CC(C(O)c3ccc([N+](=O)[O-])cc3)N(Nc3ccccc3)C2C1=O (stereo unspecified) ?
Result: -0.323

Query: Look at this compound and give its reported z-score. COc1ccc([Si](C)(C)[C@H]2[C@H](CC(=O)N3CCC[C@H]3CO)O[C@@]3(C(=O)N(Cc4cccc(N5CCCCC5=O)c4)c4ccccc43)[C@@H]2C)cc1
Result: -0.314

Query: Find the recorded z-score belonging to COC(=O)[C@H](Cc1ccccc1)N1CC(C)(OC)O[C@@H](Cc2ccccc2)[C@H]1/C=C/C1CC1 (stereo partly specified) and report it.
Result: 1.12

###

Assay: fission yeast growth modulation, primary screen, strain 972, OD600, 24 h, no modulator (AID 1090);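 note: basal condition with compound alone and no growth modifier present; test concentration not given here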
Details: S. pombe 972 growth, higher = more signal, called active from +8 up or from −8 down
Measured Metric: z-score
Output: the number by itself.

Query: Param item = COCCOC(=O)N1C(=O)[C@@]2(c3cc(C#CC4=CCCCC4)ccc31)[C@H](C(=O)N1CCCCCCC1)[C@H]1C(=O)O[C@H](c3ccccc3)[C@H](c3ccccc3)N1[C@@H]2c1ccccc1OCCO ; retrieve measured z-score.
Result: -1.22

Query: I have this compound here, COC(=O)[C@]1(Cc2ccccc2N=[N+]=[N-])N=C(c2ccc(OCCCO)cc2)O[C@@H]1c1ccccc1CN=[N+]=[N-] , and I need its recorded z-score.
Result: 0.708

Query: Given the entry CC(C)N1CC=CC23O[C@@H]4/C=C\CCCOC(=O)C4[C@H]2C(=O)N(C(C)CO)[C@@H]3C1=O (stereo partly drawn) , report its measured z-score.
Result: -1.09

Query: Please look up its z-score: CC(C)C[C@@H]1NC(=O)[C@@H]2C[C@H](C(=O)NCCCCCNC(=O)CS)[C@H](c3ccc(O)cc3)N2C1=O
Result: 0.0046

Query: Record request: z-score value, item CCCCC(=C=CC[C@@H](O)c1ccc(OCCO)cc1)CCO
Result: -1.56

Query: Name the reported z-score value associated with the compound CC1(C)OB(/C=C\CC(OC(=O)c2ccncc2)c2ccccc2)OC1(C)C (stereo not drawn)
Result: -1.3

Query: Entry under review: C=C(/C=C\CNS(=O)(=O)c1ccc(C)cc1)[C@H](O)[C@H]1CCCN1S(=O)(=O)c1ccccc1[N+](=O)[O-] . Reported z-score?
Result: 1.09

Query: Looking for the measured z-score of C[C@]1(C(=O)NC2CC2)c2ccccc2C(=O)N(Cc2cc(F)cc(C(F)(F)F)c2)[C@H]1c1ccc(CO)cc1 , can you help?
Result: -0.194
